The measured values listed here are drawn from patent US8158621B2.

# pIC50 annotations
- Test system: cultured human mast cells (CHMC)
- method.description: CHMC low cell density IgE activation: tryptase assay
- Assay type: cell-based
- particulars: low cell density; read-out: CHMC anti-IgE Tryptase
Scale note: pIC50 = -log10(concentration in M).

- compound: "COc1cc(Nc2ncc(F)c(Nc3cccc(NC(C)=O)n3)n2)cc(OC)c1"
  pIC50: 6.40
- compound: "COc1cc(Nc2nc(Nc3ccc4cn[nH]c4c3)ncc2F)ccc1F"
  pIC50: 6.78
- compound: "COc1ccc(Nc2nc(Nc3ccc4cnn(CCCO)c4c3)ncc2F)cc1Cl"
  pIC50: 6.41
- compound: "CNC(=O)CCn1ncc2ccc(Nc3ncc(F)c(Nc4ccc5c(c4)NC(=O)C(C)(C)O5)n3)cc21"
  pIC50: 6.47
- compound: "C[C@@H]1Oc2ccc(Nc3nc(Nc4ccc(CNC(=O)OC(C)(C)C)cc4)ncc3F)cc2NC1=O"
  pIC50: 6.75
- compound: "COc1ccc(Nc2nc(Nc3cc(C)c(OC)c(Cl)c3)ncc2F)cc1Cl"
  pIC50: 5.28
- compound: "COc1c(C)cc(Nc2ncc(F)c(Nc3ccc4c(c3)OCCO4)n2)cc1C"
  pIC50: 4.64
- compound: "Cn1cc2ccc(Nc3ncc(F)c(Nc4ccc(Cl)c(Cl)c4)n3)cc2n1"
  pIC50: 6.37

Requested read-out: pIC50. Entry: "COc1c(C)cc(Nc2ncc(F)c(Nc3ccc4c(c3)NC(=O)C(C)(C)O4)n2)cc1Cl" 7.33

====

- System: cultured human mast cells (CHMC)
- method.description: CHMC low cell density IgE activation: tryptase assay
- Assay type: cell-based
- particulars: low cell density; read-out: CHMC anti-IgE Tryptase
attribute.measured: pIC50
Worth noting: pIC50 values are minus log10 of concentrations stated in mol/L.

Find the measured pIC50: item CN(C)Cc1cc2cc(Nc3ncc(F)c(Nc4ccc5c(c4)NC(=O)C(F)(F)O5)n3)ccc2o1 [Compound R926979] , target or system cultured human mast cells (CHMC). 6.96

Fc1ccc(Nc2nc(Nc3ccc4[nH]ncc4c3)ncc2F)cc1Cl [Compound R935428] , same question. 5.90

Note, next up: COc1ccc(Nc2nc(Nc3cc(C)c(C)c(C)c3)ncc2F)cc1Cl [Compound R926993] 6.16

CC1(C)Oc2ccc(Nc3nc(Nc4cccc(O)c4)ncc3F)nc2NC1=O [Compound R940382] ? 6.98

====

As shown below, each of these compounds has a reported IC50 value.
- Tested on: cultured human mast cells (CHMC)
- method.description: CHMC low cell density IgE activation: tryptase assay
- Type: cell-based
- particulars: low cell density; read-out: CHMC anti-IgE Tryptase

The examples below pair each entry with its known result.
- substance.smiles: "Cn1ncc2ccc(Nc3nc(Cl)ncc3F)cc21"
  target.desc: "cultured human mast cells (CHMC)"
  IC50: "> 10 µM"
- substance.smiles: "CCN(CC)CCCNc1ncc(F)c(Nc2cc(OC)cc(OC)c2)n1"
  target.desc: "cultured human mast cells (CHMC)"
  IC50: "> 10 µM"

Pending compound:
State its IC50 on cultured human mast cells (CHMC): "Fc1cnc(NC2CCC2)nc1Nc1ccc(N2CCOCC2)cc1" > 10 µM

====

- Test system: cultured human mast cells (CHMC)
- method.description: CHMC high cell density IgE activation: histamine
- Type: cell-based
pIC50: −log10 of the molar value.
Some molecules, each annotated with its measured pIC50.

Example cases with answers are listed next.
- molecule: "Cc1cc(Nc2nc(Nc3cccc(OCCN4CCNCC4)c3)ncc2F)cc(C)c1O [Compound R945142]"
  attribute.measured: "pIC50"
  result: "< 5.00"
- molecule: "O=C(c1cc2cc(Nc3ncc(F)c(Nc4cccc(O)c4)n3)ccc2o1)N1CCNCC1 [Compound R926502]"
  attribute.measured: "pIC50"
  result: "< 5.70"
- molecule: "COC(=O)C1Cc2cc(Nc3ncc(F)c(Nc4ccc(OC(C)C)cc4)n3)ccc2O1 (stereo not shown) [Compound R926706]"
  attribute.measured: "pIC50"
  result: "< 5.00"

GET /values?readout=pIC50&item= OCc1cc2cc(Nc3ncc(F)c(Nc4cccc(O)c4)n3)ccc2[nH]1 [Compound R926700] > 5.96
